Recorded measurements of EC50, one per entry
- Measured on: T1, human CD19 on Raji cells (human, UniProt P15391 20-556)
- T1 construct: whole, on cells
- T1 sequence (looked up): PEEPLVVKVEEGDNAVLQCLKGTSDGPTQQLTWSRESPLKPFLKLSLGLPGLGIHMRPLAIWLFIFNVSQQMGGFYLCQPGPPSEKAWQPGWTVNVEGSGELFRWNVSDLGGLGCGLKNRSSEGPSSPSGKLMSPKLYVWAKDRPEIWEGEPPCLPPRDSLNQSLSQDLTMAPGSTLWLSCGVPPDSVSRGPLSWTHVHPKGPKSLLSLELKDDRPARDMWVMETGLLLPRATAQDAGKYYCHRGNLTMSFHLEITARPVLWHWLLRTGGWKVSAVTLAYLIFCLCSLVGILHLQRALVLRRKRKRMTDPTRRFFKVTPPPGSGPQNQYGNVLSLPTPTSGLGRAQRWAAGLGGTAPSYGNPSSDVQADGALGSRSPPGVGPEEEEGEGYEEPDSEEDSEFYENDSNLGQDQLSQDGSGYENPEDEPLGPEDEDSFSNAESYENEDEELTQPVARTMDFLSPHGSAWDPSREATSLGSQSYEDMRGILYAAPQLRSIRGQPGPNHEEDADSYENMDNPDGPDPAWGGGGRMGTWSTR
- Protocol text: FACS on Raji cells
Answer in nM, number only, no unit symbol.

Binder	Quantity	Value unit	Test value
F3.3.10 (antibody, human IgG1, V domains shown, human-murine chimeric antibody, human IgG1) VH: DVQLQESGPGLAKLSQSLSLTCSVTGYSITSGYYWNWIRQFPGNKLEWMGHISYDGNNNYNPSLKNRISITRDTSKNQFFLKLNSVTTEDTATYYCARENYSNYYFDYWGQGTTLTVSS VL: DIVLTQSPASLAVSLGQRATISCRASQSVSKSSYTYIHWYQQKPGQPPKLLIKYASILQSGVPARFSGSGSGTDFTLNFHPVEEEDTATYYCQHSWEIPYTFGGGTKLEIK	EC50	nM	2.9

In the following, a different binder is considered.
[ask] Please look up its EC50: F4.49.11 (antibody, human IgG1, V domains shown, human-murine chimeric antibody, human IgG1) VH: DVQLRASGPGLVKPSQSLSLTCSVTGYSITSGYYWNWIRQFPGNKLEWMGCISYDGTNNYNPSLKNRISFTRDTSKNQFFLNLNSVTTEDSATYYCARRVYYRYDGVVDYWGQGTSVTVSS VL: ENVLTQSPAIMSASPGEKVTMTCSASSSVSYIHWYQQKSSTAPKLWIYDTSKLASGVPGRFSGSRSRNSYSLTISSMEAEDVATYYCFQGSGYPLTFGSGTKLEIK
[reply] 6.21
